# TESTED SYSTEM: PMIV (Plasmodium falciparum)
# Sequence (Q8IM16 122-449): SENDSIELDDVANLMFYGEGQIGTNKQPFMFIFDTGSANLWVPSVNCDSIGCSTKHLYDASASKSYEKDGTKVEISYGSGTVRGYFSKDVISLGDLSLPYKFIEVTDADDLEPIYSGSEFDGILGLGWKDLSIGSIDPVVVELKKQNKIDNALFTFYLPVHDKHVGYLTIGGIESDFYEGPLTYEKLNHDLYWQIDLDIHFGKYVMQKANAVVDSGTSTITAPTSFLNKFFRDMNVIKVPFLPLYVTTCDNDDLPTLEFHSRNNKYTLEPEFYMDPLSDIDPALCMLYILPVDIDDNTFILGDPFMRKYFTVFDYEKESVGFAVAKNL
# ASSAY TEXT: FRET-based PMIV inhibition assay
# Assay type: biochemical, P. falciparum
# CONDITION CONTEXT: Table 3; read-out: PMIV, nM (as listed in Table 3)
ASSAY READOUT: IC50 (nM)
Give a bare numeral; the unit nM is implied.

Task: Could you share which IC50 value was measured for CCCN1CCOCCc2cccc(c2)C[C@@H]([C@H](O)CNC(C)(C)c2cccc(OC)c2)NC(=O)c2cccc(c2)C1=O ?
Result: 81

Task: Here is the next compound: CCCN1CCOc2cccc(c2)C[C@@H]([C@H](O)CNC(C)(C)c2cccc(OC)c2)NC(=O)c2cccc(c2)C1=O
Result: 200

Task: Here is the next compound: CCCN1CCCCCOc2cccc(c2)C[C@@H]([C@H](O)CNC(C)(C)c2cccc(OC)c2)NC(=O)c2cccc(c2)C1=O
Result: 190

Task: Here is the next compound: CCCN1CCCCc2cccc(c2)C[C@@H]([C@H](O)CNC(C)(C)c2cccc(OC)c2)NC(=O)c2cccc(c2)C1=O
Result: 74

Task: Here is the next compound: CCCN1CCCCCc2cccc(c2)C[C@@H]([C@H](O)CNC(C)(C)c2cccc(OC)c2)NC(=O)c2cccc(c2)C1=O
Result: 17

Recorded values, source paper PMC10424242.
